# Condition label: in 2-butanone, 293.15 K
Reported metric: solubility (mole fraction)

Inquiry: # input molecule: O=Cc1ccc(O)cc1 ; wanted: its solubility (mole fraction)
Reply text: 0.135

###

# Condition label: in 1,4-dioxane, 313.15 K
Reported metric: solubility (mole fraction)
I only need the number, thanks.

Inquiry: # input compound: O=Cc1ccc(O)cc1 ; wanted: its solubility (mole fraction)
Reply text: 0.267

###

# Condition label: in acetone, 278.15 K
Reported metric: solubility (mole fraction)
I only need the number, thanks.

Inquiry: # input compound: O=Cc1ccc(O)cc1 ; wanted: its solubility (mole fraction)
Reply text: 0.0713

###

# Condition label: in ethyl acetate, 293.15 K
Reported metric: solubility (mole fraction)
I only need the number, thanks.

Inquiry: # input compound: O=Cc1ccc(O)cc1 ; wanted: its solubility (mole fraction)
Reply text: 0.129
